For each of the compounds below, state its Albumin-bound fraction.
- assayTarget: human serum albumin (HSA) in human plasma (Homo sapiens, UniProt P02768)
- Sequence (P02768 25-609): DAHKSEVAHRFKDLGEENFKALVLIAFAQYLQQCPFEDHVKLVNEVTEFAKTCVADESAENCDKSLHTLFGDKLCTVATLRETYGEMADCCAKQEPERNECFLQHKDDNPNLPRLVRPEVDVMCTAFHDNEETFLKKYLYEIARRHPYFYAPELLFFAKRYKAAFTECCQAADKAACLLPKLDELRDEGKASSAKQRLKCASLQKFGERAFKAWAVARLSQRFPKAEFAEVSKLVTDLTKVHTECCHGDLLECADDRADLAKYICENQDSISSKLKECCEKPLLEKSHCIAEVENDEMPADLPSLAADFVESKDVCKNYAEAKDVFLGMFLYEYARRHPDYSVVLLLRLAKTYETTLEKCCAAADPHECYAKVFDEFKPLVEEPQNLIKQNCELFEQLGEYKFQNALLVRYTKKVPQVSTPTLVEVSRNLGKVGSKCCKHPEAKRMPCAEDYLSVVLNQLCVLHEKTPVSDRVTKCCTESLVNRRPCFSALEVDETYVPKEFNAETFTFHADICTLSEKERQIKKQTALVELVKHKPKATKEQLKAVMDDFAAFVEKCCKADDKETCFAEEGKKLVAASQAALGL
- testSummary: Ultrafiltration albumin-binding assay of 177Lu-RedFols, human plasma
- testConditions: undiluted human blood plasma

>>> reportedvalue("CN1c2c(nc(N)[nH]c2=O)NC[C@H]1CNc1ccc(C(=O)N[C@@H](CCC(=O)N[C@@H](CCCCNC(=O)CN2CCN(CC(=O)O)CCN(CC(=O)O)CCN(CC(=O)O)CC2)C(=O)N[C@@H](CCCCNC(=O)CCCc2ccc(I)cc2)C(=O)O)C(=O)O)cc1 [[^177Lu]Lu-6R-RedFol-1, metal not drawn]")
"98%"
>>> reportedvalue("CN1c2c(nc(N)[nH]c2=O)NCC1CNc1ccc(C(=O)NC(CCC(=O)NC(CCCCNC(=O)CN2CCN(CC(=O)[O-])CCN(CC(=O)[O-])CCN(CC(=O)[O-])CC2)C(=O)NC(CCCCNC(=O)CCCc2ccc(I)cc2)C(=O)O)C(=O)O)cc1.[177Lu+3] (stereo not drawn) [[^177Lu]Lu-6S-RedFol-1]")
"98%"
>>> reportedvalue("CN1c2c(nc(N)[nH]c2=O)NC[C@H]1CNc1ccc(C(=O)N[C@@H](CCC(=O)N[C@@H](CCCCNC(=O)CN2CCN(CC(=O)O)CCN(CC(=O)O)CCN(CC(=O)O)CC2)C(=O)N[C@@H](CCCCNC(=O)c2ccc(CNC(=O)CCCCc3ccc(I)cc3)cc2)C(=O)O)C(=O)O)cc1 [[^177Lu]Lu-6R-RedFol-25, metal not drawn]")
"96%"
>>> reportedvalue("CN1c2c(nc(N)[nH]c2=O)NCC1CNc1ccc(C(=O)NC(CCC(=O)NC(CCCCNC(=O)CN2CCN(CC(=O)[O-])CCN(CC(=O)[O-])CCN(CC(=O)[O-])CC2)C(=O)NC(CCCCNC(=O)c2ccc(CNC(=O)CCCCc3ccc(I)cc3)cc2)C(=O)O)C(=O)O)cc1.[177Lu+3] (stereo not drawn) [[^177Lu]Lu-6S-RedFol-25]")
"91%"

Hi, could you look up Albumin-bound fraction for each item in my list?
1. CN1c2c(nc(N)[nH]c2=O)NC[C@H]1CNc1ccc(C(=O)N[C@@H](CCC(=O)N[C@@H](CCCCNC(=O)CN2CCN(CC(=O)O)CCN(CC(=O)O)CCN(CC(=O)O)CC2)C(=O)N[C@@H](CCCCNC(=O)CCCCc2ccc(I)cc2)C(=O)O)C(=O)O)cc1 [[^177Lu]Lu-6R-RedFol-24, metal not drawn]
2. CN1c2c(nc(N)[nH]c2=O)NC[C@H]1CNc1ccc(C(=O)N[C@@H](CCC(=O)N[C@@H](CCCCNC(=O)CN2CCN(CC(=O)O)CCN(CC(=O)O)CCN(CC(=O)O)CC2)C(=O)N[C@@H](CCCCNC(=O)c2ccc(CNC(=O)CCCc3ccc(I)cc3)cc2)C(=O)O)C(=O)O)cc1 [[^177Lu]Lu-6R-RedFol-3, metal not drawn]
3. CN1c2c(nc(N)[nH]c2=O)NCC1CNc1ccc(C(=O)NC(CCC(=O)NC(CCCCNC(=O)CN2CCN(CC(=O)[O-])CCN(CC(=O)[O-])CCN(CC(=O)[O-])CC2)C(=O)NC(CCCCNC(=O)c2ccc(CNC(=O)CCCc3ccc(I)cc3)cc2)C(=O)O)C(=O)O)cc1.[177Lu+3] (stereo not drawn) [[^177Lu]Lu-6S-RedFol-3]

stdout:
1: 94%; 2: 97%; 3: 97%
